Taken from patent US20120321619A1.

target: T1, recombinant soluble murine C4.4a (mouse, UniProt Q91YK8 33-343, limits assumed)
T1 construct: also called mouse C4.4a; mC4.4a
T1 sequence (looked up): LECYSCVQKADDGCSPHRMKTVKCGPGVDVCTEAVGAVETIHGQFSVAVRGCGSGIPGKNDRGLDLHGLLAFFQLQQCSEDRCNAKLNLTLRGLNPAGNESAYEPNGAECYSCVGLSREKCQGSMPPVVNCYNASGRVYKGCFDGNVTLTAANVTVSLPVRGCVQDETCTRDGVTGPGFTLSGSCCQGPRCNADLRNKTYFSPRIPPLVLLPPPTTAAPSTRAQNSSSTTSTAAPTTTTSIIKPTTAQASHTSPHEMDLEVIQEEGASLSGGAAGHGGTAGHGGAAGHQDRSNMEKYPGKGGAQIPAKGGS
test.method.notes: direct ELISA, Fab supernatant on coated mouse C4.4a, signal normalized to Fab quantity
# binarize normalized affinity signal (median): threshold 0.2 inclusive, high side Criterion met, low side Criterion not met

INSERT INTO results (binder, category) VALUES
  ('M31-B01 Fab LC K53Q (Fab, V domains shown, Fab with 3×HA-tag and hexa-histidine tag at the C-terminus of the heavy chain, culture supernatant) VH: EVQLLESGGGLVQPGGSLRLSCAASGFTFSNAWMSWVRQAPGKGLEWVSYISSSGSTIYYADSVKGRFTISRDNSKNTLYLQMNSLRAEDTAVYYCAREGLWAFDYWGQGTLVTVTS VL: QSVLTQPPSASGTPGQRVTISCTGSSSNIGAGYVVHWYQQLPGTAPKLLIYDNNQRPSGVPDRFSGSKSGTSASLAISGLRSEDEADYYCAAWDDRLNGPVFGGGTKLTVLG', 'Criterion met'),
  ('M31-B01 Fab HC I57T (Fab, V domains shown, Fab with 3×HA-tag and hexa-histidine tag at the C-terminus of the heavy chain, culture supernatant) VH: EVQLLESGGGLVQPGGSLRLSCAASGFTFSNAWMSWVRQAPGKGLEWVSYISSSGSTTYYADSVKGRFTISRDNSKNTLYLQMNSLRAEDTAVYYCAREGLWAFDYWGQGTLVTVTS VL: QSVLTQPPSASGTPGQRVTISCTGSSSNIGAGYVVHWYQQLPGTAPKLLIYDNNKRPSGVPDRFSGSKSGTSASLAISGLRSEDEADYYCAAWDDRLNGPVFGGGTKLTVLG', 'Criterion met'),
  ('wild-type Fab M31-B01 (Fab, V domains shown, Fab with 3×HA-tag and hexa-histidine tag at the C-terminus of the heavy chain, E. coli culture supernatant; also called M31-B01 (parental Fab)) VH: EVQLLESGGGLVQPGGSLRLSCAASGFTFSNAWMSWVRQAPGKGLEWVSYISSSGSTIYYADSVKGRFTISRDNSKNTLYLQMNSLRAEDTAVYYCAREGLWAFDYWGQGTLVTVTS VL: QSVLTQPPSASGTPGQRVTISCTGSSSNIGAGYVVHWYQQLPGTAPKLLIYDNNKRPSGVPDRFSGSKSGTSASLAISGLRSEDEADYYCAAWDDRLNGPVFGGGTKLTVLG', 'Criterion not met'),
  ('M31-B01 Fab HC T56S (Fab, V domains shown, Fab with 3×HA-tag and hexa-histidine tag at the C-terminus of the heavy chain, culture supernatant) VH: EVQLLESGGGLVQPGGSLRLSCAASGFTFSNAWMSWVRQAPGKGLEWVSYISSSGSSIYYADSVKGRFTISRDNSKNTLYLQMNSLRAEDTAVYYCAREGLWAFDYWGQGTLVTVTS VL: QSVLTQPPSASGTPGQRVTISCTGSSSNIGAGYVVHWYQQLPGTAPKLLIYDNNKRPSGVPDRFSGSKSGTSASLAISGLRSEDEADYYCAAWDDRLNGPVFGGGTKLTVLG', 'Criterion met'),
  ('M31-B01 Fab HC N31S (Fab, V domains shown, Fab with 3×HA-tag and hexa-histidine tag at the C-terminus of the heavy chain, culture supernatant) VH: EVQLLESGGGLVQPGGSLRLSCAASGFTFSSAWMSWVRQAPGKGLEWVSYISSSGSTIYYADSVKGRFTISRDNSKNTLYLQMNSLRAEDTAVYYCAREGLWAFDYWGQGTLVTVTS VL: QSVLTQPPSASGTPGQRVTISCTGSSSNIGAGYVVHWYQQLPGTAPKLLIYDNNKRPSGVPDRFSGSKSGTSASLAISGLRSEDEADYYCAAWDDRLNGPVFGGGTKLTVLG', 'Criterion met'),
  ('M31-B01 Fab HC A32Y (Fab, V domains shown, Fab with 3×HA-tag and hexa-histidine tag at the C-terminus of the heavy chain, culture supernatant) VH: EVQLLESGGGLVQPGGSLRLSCAASGFTFSNYWMSWVRQAPGKGLEWVSYISSSGSTIYYADSVKGRFTISRDNSKNTLYLQMNSLRAEDTAVYYCAREGLWAFDYWGQGTLVTVTS VL: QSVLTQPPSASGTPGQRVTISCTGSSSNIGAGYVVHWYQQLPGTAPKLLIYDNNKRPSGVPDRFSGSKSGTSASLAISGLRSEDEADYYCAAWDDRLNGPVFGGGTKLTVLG', 'Criterion not met'),
  ('M31-B01 Fab LC T24S (Fab, V domains shown, Fab with 3×HA-tag and hexa-histidine tag at the C-terminus of the heavy chain, culture supernatant) VH: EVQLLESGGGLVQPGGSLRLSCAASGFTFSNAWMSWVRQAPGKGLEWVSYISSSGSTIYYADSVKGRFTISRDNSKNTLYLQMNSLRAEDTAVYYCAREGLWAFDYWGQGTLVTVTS VL: QSVLTQPPSASGTPGQRVTISCSGSSSNIGAGYVVHWYQQLPGTAPKLLIYDNNKRPSGVPDRFSGSKSGTSASLAISGLRSEDEADYYCAAWDDRLNGPVFGGGTKLTVLG', 'Criterion met');
